Biological target: Histone deacetylase 8 (Homo sapiens, UniProt Q9BY41)
Sequence (Q9BY41 whole entry): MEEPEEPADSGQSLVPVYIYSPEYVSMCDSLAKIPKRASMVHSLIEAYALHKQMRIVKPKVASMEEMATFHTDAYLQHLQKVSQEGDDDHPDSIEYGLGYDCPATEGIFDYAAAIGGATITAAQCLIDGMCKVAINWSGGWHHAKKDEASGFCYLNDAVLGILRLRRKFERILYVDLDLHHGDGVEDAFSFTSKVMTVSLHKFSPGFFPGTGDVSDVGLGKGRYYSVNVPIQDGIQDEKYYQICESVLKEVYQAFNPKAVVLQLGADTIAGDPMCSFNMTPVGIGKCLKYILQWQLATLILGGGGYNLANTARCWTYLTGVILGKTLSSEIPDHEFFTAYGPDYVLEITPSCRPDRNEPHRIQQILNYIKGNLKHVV
Quantity kind: IC50 (nM)
Number in nM, nothing else.

Tell us which IC50 value is on record for C#CCN(C)CCCOc1cc(NCc2ccc(/C=C/C(=O)NO)cc2)ccc1Cl
80

Tell us which IC50 value is on record for C#CCN(C)CCCOc1cc(NC(=O)CCCCCCCC(=O)NO)ccc1Cl
1120

Tell us which IC50 value is on record for C#CCN(C)CCCOc1cc(NC(=O)CCCCCCC(=O)NO)c(Cl)cc1Cl
1780

Tell us which IC50 value is on record for C#CCN(C)CCCOc1cc(NC(=O)CCCCCCCCC(=O)NO)ccc1Cl
2480

Tell us which IC50 value is on record for C#CCN(C)CCCOc1cc(NCc2ccc(C(=O)NO)cc2)ccc1Cl
1170

Tell us which IC50 value is on record for C#CCN(C)CCCOc1ccc(NC(=O)CCCCCCC(=O)NO)cc1Cl
330

Tell us which IC50 value is on record for C#CCN(C)CCCOc1cccc(NC(=O)CCCCCCC(=O)NO)c1Cl
1470

Tell us which IC50 value is on record for C#CCN(C)CCCOc1cc(NC(=O)CCCCCCC(=O)NO)ccc1Cl
50

====

assay: Toxicity in mouse bearing intracranial tumor assessed as assessed as median survival time at 25 mg/kg, ip treatment started at 7 dpi (Rvb=18.25 days); type: organism-based; conditions: in vivo, 438 h
I'd be grateful if you could share measured MST for these entries.
Number in days, nothing else.

Tell us which MST value is on record for C#CCN(C)CCCOc1ccc(NC(=O)CCCCCCC(=O)NO)cc1Cl
17.25

Tell us which MST value is on record for C#CCN(C)CCCOc1cc(NCc2ccc(/C=C/C(=O)NO)cc2)ccc1Cl
19.5

Tell us which MST value is on record for C#CCN(C)CCCOc1cc(NCc2ccc(C(=O)NO)cc2)ccc1Cl
19.75

Tell us which MST value is on record for C#CCN(C)CCCOc1cc(NC(=O)CCCCCCCCC(=O)NO)ccc1Cl
18

====

assay: Toxicity in mouse bearing intracranial tumor assessed as last day of survival at 25 mg/kg, ip treatment started at 7 dpi (Rvb=19 days); format: organism-based; conditions: in vivo, 456 h
I'd be grateful if you could share measured Survival for these entries.

Tell us which Survival value is on record for C#CCN(C)CCCOc1cc(NCc2ccc(/C=C/C(=O)NO)cc2)ccc1Cl
22 days

Tell us which Survival value is on record for C#CCN(C)CCCOc1ccc(NC(=O)CCCCCCC(=O)NO)cc1Cl
20 days

Tell us which Survival value is on record for C#CCN(C)CCCOc1cc(NC(=O)CCCCCCCCC(=O)NO)ccc1Cl
21 days

Tell us which Survival value is on record for C#CCN(C)CCCOc1cc(NCc2ccc(C(=O)NO)cc2)ccc1Cl
23 days

Data credit: ChEMBL document CHEMBL5154693
